Quick list: pIC50 per entry.
tested system: full-length SHP2 (Homo sapiens)
Construct: 1 nM full-length SHP2 (His6-tagged SHP2(2-527), recombinantly expressed in E. coli and purified in-house); His6
Sequence (Q06124 2-527): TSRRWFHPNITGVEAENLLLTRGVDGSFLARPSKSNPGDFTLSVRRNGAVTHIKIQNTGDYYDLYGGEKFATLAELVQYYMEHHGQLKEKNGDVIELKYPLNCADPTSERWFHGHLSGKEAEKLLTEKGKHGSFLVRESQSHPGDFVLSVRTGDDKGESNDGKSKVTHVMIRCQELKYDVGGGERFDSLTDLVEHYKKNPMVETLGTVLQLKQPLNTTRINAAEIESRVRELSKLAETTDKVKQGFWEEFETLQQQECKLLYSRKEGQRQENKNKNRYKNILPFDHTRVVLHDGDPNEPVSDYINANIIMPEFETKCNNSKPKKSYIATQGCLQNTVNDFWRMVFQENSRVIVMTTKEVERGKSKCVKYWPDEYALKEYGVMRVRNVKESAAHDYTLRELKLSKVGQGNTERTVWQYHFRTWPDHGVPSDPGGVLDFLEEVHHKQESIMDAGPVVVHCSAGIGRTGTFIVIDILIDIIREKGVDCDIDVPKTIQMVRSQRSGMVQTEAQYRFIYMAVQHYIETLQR
procedure text: SHP2 enzymatic assay (fluorescence intensity kinetic assay, DiFMUP hydrolysis)
details: 1 nM His6-tagged SHP2(2-527), 1 μM activating peptide, 50 μM DiFMUP; single assay or mean of multiple assays; read-out: Biological Example 1 IC50
pIC50: −log10 of the molar value.

compound: N[C@@H]1c2ccccc2CC12CCN(c1ncc(Sc3c[nH]c4ncccc34)nn1)CC2
pIC50: 7.31
--
compound: Cc1cccc2c1CC1(CCN(c3ncc(Sc4ccnc(N)c4Cl)nn3)CC1)[C@@H]2N
pIC50: 7.52
--
compound: N[C@@H]1c2ccccc2CC12CCN(c1ncc(Cc3ccccc3)nn1)CC2
pIC50: 7.01
--
compound: N[C@@H]1c2ccccc2CC12CCN(c1ncc(Sc3cccc4c3CC4)nn1)CC2
pIC50: 7.96
--
compound: Cc1ccc2c(c1)[C@H](N)C1(CCN(c3ncc(Sc4ccnc(N)c4Cl)nn3)CC1)C2
pIC50: 7.42
--
compound: Cc1ccc2c(n1)CC1(CCN(c3ncc(Sc4ccnc(N)c4Cl)nn3)CC1)[C@@H]2N
pIC50: 7.41
--
compound: N[C@@H]1c2ccccc2CC12CCN(c1ncc(Sc3ccccc3)nn1)CC2
pIC50: 8.30
--
compound: N[C@@H]1c2ccccc2CC12CCN(c1ncc(Sc3n[nH]c4ccccc34)nn1)CC2
pIC50: 7.70
--
compound: Cc1nc(N2CCC3(CC2)CO[C@@H](C)[C@H]3N)nnc1-c1cccc(Cl)c1Cl
pIC50: 7.55
--
compound: Nc1nccc(Sc2cnc(N3CCC4(CC3)Cc3c(Cl)cccc3[C@@H]4N)nn2)c1Cl
pIC50: 6.69
--
compound: N[C@@H]1c2ccccc2CC12CCN(c1ncc(Sc3n[nH]c4ncccc34)nn1)CC2
pIC50: 7.77
--
compound: Nc1nccc(Sc2cnc(N3CCC4(CC3)Cc3nc(Cl)sc3C4N)nn2)c1Cl (centres unmarked)
pIC50: 7.39
--
compound: Nc1cc(Sc2cnc(N3CCC4(CC3)Cc3ccccc3[C@H]4N)nn2)c(Cl)cn1
pIC50: 7.82
--
compound: CC(C)(C#N)CNc1nccc(Sc2cnc(N3CCC4(CC3)Cc3ccccc3[C@H]4N)nn2)c1Cl
pIC50: 6.96
--
compound: N[C@@H]1c2ccccc2CC12CCN(c1ncc(Sc3ccnc4c3C(F)(F)C(=O)N4)nn1)CC2
pIC50: 7.59
--
compound: C[C@@H]1OCC2(CCN(c3ncc(Sc4ccnc5c4ccn5C)nn3)CC2)[C@@H]1N
pIC50: 7.02
--
compound: N[C@@H]1c2cccnc2CC12CCN(c1ncc(Sc3cccc4c3CC4)nn1)CC2
pIC50: 7.89
